assay.method.text: Microsomal stability
Type: in vitro ADME, mouse
assay.setup: microsomes + NADPH, 15 min
Form field: % remaining (one value per entry).
measure.name: % remaining

cpd.smiles	measure.name	value.reported
CC[C@H](C)[C@H]1C(=O)N2CCC[C@H]2C(=O)O[C@H](C(C)(C)C)C[C@@H](C)C[C@H](O)[C@H](C)C2=N[C@@H](CCC(=O)N[C@@H](Cc3ccc(OC)cc3)C(=O)N(C)[C@@H](C)C(=O)N1C)CS2	% remaining	10.07 ± 1.46%
CC[C@H](C)[C@H]1C(=O)N2CCC[C@@H]2C(=O)O[C@H](C(C)(C)C)C[C@@H](C)C[C@H](O)[C@H](C)C2=N[C@H](CCC(=O)N[C@@H](Cc3ccc(OC)cc3)C(=O)N(C)[C@@H](C)C(=O)N1C)CS2	% remaining	3.55 ± 0.25%
CC[C@H](C)[C@H]1C(=O)N2CCC[C@@H]2C(=O)O[C@H](C(C)(C)C)C[C@@H](C)C[C@H](O)CC2=N[C@@H](CCC(=O)N[C@@H](Cc3ccc(OC)cc3)C(=O)N(C)[C@@H](C)C(=O)N1C)CS2	% remaining	52.40 ± 2.40%
CC[C@H](C)[C@H]1C(=O)N2CCC[C@@H]2C(=O)O[C@H](C(C)(C)C)C[C@@H](C)C[C@H](O)C(C)(C)C2=N[C@@H](CCC(=O)N[C@@H](Cc3ccc(OC)cc3)C(=O)N(C)[C@@H](C)C(=O)N1C)CS2	% remaining	8.28 ± 2.86%
